- Tested on: A-427
- measurement protocol: relative viability (nuclei count vs DMSO), 5 days (fraction); higher = more cells survive
- details: first compound 0.1265 µM
reported metric: relative viability

Lookup result for Clc1ccc(Nc2nnc(Cc3ccncc3)c3ccccc23)cc1 [Vatalanib] + Nc1ncn([C@H]2C[C@H](O)[C@@H](CO)O2)c(=O)n1 [Decitabine] (partner 2 µM) ; measured relative viability: 0.544

Lookup result for COc1cc(N2CCC(C(N)=O)CC2)ccc1Nc1nc(N)c(Cl)c(Nc2ccccc2S(=O)(=O)C(C)C)n1 [HG-5-88-01] + C[C@]1(O)C[C@@H](c2nc(-c3ccc4ccc(-c5ccccc5)nc4c3)c3c(N)nccn32)C1 [Linsitinib] (partner 1 µM) ; measured relative viability: 1.11

Lookup result for COc1cc(N2CCC(C(N)=O)CC2)ccc1Nc1nc(N)c(Cl)c(Nc2ccccc2S(=O)(=O)C(C)C)n1 [HG-5-88-01] + C[C@@H](Oc1cc(-c2cnn(C3CCNCC3)c2)cnc1N)c1c(Cl)ccc(F)c1Cl [Crizotinib] (partner 1 µM) ; measured relative viability: 0.952

Lookup result for COc1cc(N2CCC(C(N)=O)CC2)ccc1Nc1nc(N)c(Cl)c(Nc2ccccc2S(=O)(=O)C(C)C)n1 [HG-5-88-01] + COc1cccc2cc(-c3nc([C@H]4CC[C@H](C(=O)O)CC4)n4ncnc(N)c34)[nH]c12 [OSI-027] (partner 0.5 µM) ; measured relative viability: 0.533

* * *

- Test system: NCI-H1975
- measurement protocol: relative viability (nuclei count vs DMSO), 5 days (fraction); higher = more cells survive
- details: first compound 0.03162 µM
reported metric: relative viability

Lookup result for CC(C)Oc1cc(Nc2nc(N[C@@H](C)c3ccc(F)cn3)ncc2Cl)n[nH]1 [AZ23] + Cc1cc(Nc2cc(N3CCN(C)CC3)nc(Sc3ccc(NC(=O)C4CC4)cc3)n2)n[nH]1 [Tozasertib] (partner 0.1 µM) ; measured relative viability: 0.977

Lookup result for CC(C)Oc1cc(Nc2nc(N[C@@H](C)c3ccc(F)cn3)ncc2Cl)n[nH]1 [AZ23] + CC(C)C[C@H](NC(=O)[C@H](Cc1ccccc1)NC(=O)c1cnccn1)B(O)O [Bortezomib] (partner 0.002 µM) ; measured relative viability: 0.372

Lookup result for CC(C)Oc1cc(Nc2nc(N[C@@H](C)c3ccc(F)cn3)ncc2Cl)n[nH]1 [AZ23] + CS(=O)(=O)N1CCN(Cc2cc3nc(-c4cccc5[nH]ncc45)nc(N4CCOCC4)c3s2)CC1 [Pictilisib] (partner 1 µM) ; measured relative viability: 0.327

* * *

- Test system: SK-MES-1
- measurement protocol: relative viability (nuclei count vs DMSO), 5 days (fraction); higher = more cells survive
- details: first compound 0.1265 µM
reported metric: relative viability
Answer using only a numeral; do not append any unit.

Lookup result for Clc1ccc(Nc2nnc(Cc3ccncc3)c3ccccc23)cc1 [Vatalanib] + CCNC(=O)c1noc(-c2cc(C(C)C)c(O)cc2O)c1-c1ccc(CN2CCOCC2)cc1 [Luminespib] (partner 0.01 µM) ; measured relative viability: 0.845

Lookup result for Clc1ccc(Nc2nnc(Cc3ccncc3)c3ccccc23)cc1 [Vatalanib] + COc1cc2c(Oc3ccc(NC(=O)C4(C(=O)Nc5ccc(F)cc5)CC4)cc3F)ccnc2cc1OCCCN1CCOCC1 [Foretinib] (partner 0.25 µM) ; measured relative viability: 0.82

Lookup result for COc1cc(N2CCC(C(N)=O)CC2)ccc1Nc1nc(N)c(Cl)c(Nc2ccccc2S(=O)(=O)C(C)C)n1 [HG-5-88-01] + COc1cc2c(Oc3ccc(NC(=O)C4(C(=O)Nc5ccc(F)cc5)CC4)cc3F)ccnc2cc1OCCCN1CCOCC1 [Foretinib] (partner 0.25 µM) ; measured relative viability: 0.808

Lookup result for COc1cc(N2CCC(C(N)=O)CC2)ccc1Nc1nc(N)c(Cl)c(Nc2ccccc2S(=O)(=O)C(C)C)n1 [HG-5-88-01] + C[C@@H](Oc1cc(-c2cnn(C3CCNCC3)c2)cnc1N)c1c(Cl)ccc(F)c1Cl [Crizotinib] (partner 1 µM) ; measured relative viability: 0.988

* * *

- Tested on: NCI-H3122
- measurement protocol: relative viability (nuclei count vs DMSO), 5 days (fraction); higher = more cells survive
- details: first compound 2.53 µM
Give measured relative viability for each item. Keep answers brief.
Answer using only a numeral; do not append any unit.

Lookup result for CCCCCCCCCCCC1=C(O)C(=O)C=C(O)C1=O [Embelin] + CC(C)C[C@H](NC(=O)[C@H](Cc1ccccc1)NC(=O)c1cnccn1)B(O)O [Bortezomib] (partner 0.002 µM) ; measured relative viability: 0.916

Lookup result for CCCCCCCCCCCC1=C(O)C(=O)C=C(O)C1=O [Embelin] + Cc1nc(Nc2ncc(C(=O)Nc3c(C)cccc3Cl)s2)cc(N2CCN(CCO)CC2)n1 [Dasatinib] (partner 0.075 µM) ; measured relative viability: 0.853

Lookup result for CCCCCCCCCCCC1=C(O)C(=O)C=C(O)C1=O [Embelin] + CS(=O)(=O)CCNCc1ccc(-c2ccc3ncnc(Nc4ccc(OCc5cccc(F)c5)c(Cl)c4)c3c2)o1 [Lapatinib] (partner 2 µM) ; measured relative viability: 0.956

* * *

- Tested on: SK-MES-1
- measurement protocol: relative viability (nuclei count vs DMSO), 5 days (fraction); higher = more cells survive
- details: first compound 0.1265 µM
Give measured relative viability for each item. Keep answers brief.
Answer using only a numeral; do not append any unit.

C[C@@H]1CN(CC(=O)Nc2ccc3c(c2)Cc2cccc(-c4cc(=O)cc(N5CCOCC5)o4)c2S3)C[C@H](C)O1 + CC(=O)Nc1cccc(-n2c(=O)n(C3CC3)c(=O)c3c(Nc4ccc(I)cc4F)n(C)c(=O)c(C)c32)c1 [Trametinib] (partner 0.02 µM) tested on SK-MES-1 gave relative viability: 0.53

COc1cc(N2CCC(C(N)=O)CC2)ccc1Nc1nc(N)c(Cl)c(Nc2ccccc2S(=O)(=O)C(C)C)n1 [HG-5-88-01] + C[C@]1(O)C[C@@H](c2nc(-c3ccc4ccc(-c5ccccc5)nc4c3)c3c(N)nccn32)C1 [Linsitinib] (partner 1 µM) tested on SK-MES-1 gave relative viability: 1.03

Clc1ccc(Nc2nnc(Cc3ccncc3)c3ccccc23)cc1 [Vatalanib] + N=C(N)NC(=N)NCCc1ccccc1 [Phenformin] (partner 250 µM) tested on SK-MES-1 gave relative viability: 0.638

C[C@@H]1CN(CC(=O)Nc2ccc3c(c2)Cc2cccc(-c4cc(=O)cc(N5CCOCC5)o4)c2S3)C[C@H](C)O1 + C[C@@H](Oc1cc(-c2cnn(C3CCNCC3)c2)cnc1N)c1c(Cl)ccc(F)c1Cl [Crizotinib] (partner 1 µM) tested on SK-MES-1 gave relative viability: 0.991

* * *

Give measured relative viability for each item. Keep answers brief.
- Test system: PC-3 [JPC-3]
- measurement protocol: relative viability (nuclei count vs DMSO), 5 days (fraction); higher = more cells survive
- details: first compound 0.04 µM
Answer using only a numeral; do not append any unit.

Lookup result for COc1cc(N2CCC(C(N)=O)CC2)ccc1Nc1nc(N)c(Cl)c(Nc2ccccc2S(=O)(=O)C(C)C)n1 [HG-5-88-01] + CC(C)C[C@H](NC(=O)[C@H](Cc1ccccc1)NC(=O)c1cnccn1)B(O)O [Bortezomib] (partner 0.002 µM) ; measured relative viability: 0.982

Lookup result for C[C@@H]1CN(CC(=O)Nc2ccc3c(c2)Cc2cccc(-c4cc(=O)cc(N5CCOCC5)o4)c2S3)C[C@H](C)O1 + O=C(c1cc(Cc2n[nH]c(=O)c3ccccc23)ccc1F)N1CCN(C(=O)C2CC2)CC1 [Olaparib] (partner 8 µM) ; measured relative viability: 1.17

Lookup result for COc1cc(N2CCC(C(N)=O)CC2)ccc1Nc1nc(N)c(Cl)c(Nc2ccccc2S(=O)(=O)C(C)C)n1 [HG-5-88-01] + Cc1cc(Nc2cc(N3CCN(C)CC3)nc(Sc3ccc(NC(=O)C4CC4)cc3)n2)n[nH]1 [Tozasertib] (partner 0.1 µM) ; measured relative viability: 0.954

Lookup result for Clc1ccc(Nc2nnc(Cc3ccncc3)c3ccccc23)cc1 [Vatalanib] + CC(C)C[C@H](NC(=O)[C@H](Cc1ccccc1)NC(=O)c1cnccn1)B(O)O [Bortezomib] (partner 0.002 µM) ; measured relative viability: 0.785

* * *

- Test system: Calu-6
- measurement protocol: relative viability (nuclei count vs DMSO), 5 days (fraction); higher = more cells survive
- details: first compound 0.4 µM
reported metric: relative viability
Answer using only a numeral; do not append any unit.

C[C@@H]1CN(CC(=O)Nc2ccc3c(c2)Cc2cccc(-c4cc(=O)cc(N5CCOCC5)o4)c2S3)C[C@H](C)O1 + Cc1nc(NC(=O)N2CCC[C@H]2C(N)=O)sc1-c1ccnc(C(C)(C)C(F)(F)F)c1 [Alpelisib] (partner 2 µM) tested on Calu-6 gave relative viability: 0.97

Clc1ccc(Nc2nnc(Cc3ccncc3)c3ccccc23)cc1 [Vatalanib] + CC(C)C[C@H](NC(=O)[C@H](Cc1ccccc1)NC(=O)c1cnccn1)B(O)O [Bortezomib] (partner 0.002 µM) tested on Calu-6 gave relative viability: 1.18

C[C@@H]1CN(CC(=O)Nc2ccc3c(c2)Cc2cccc(-c4cc(=O)cc(N5CCOCC5)o4)c2S3)C[C@H](C)O1 + CS(=O)(=O)CCNCc1ccc(-c2ccc3ncnc(Nc4ccc(OCc5cccc(F)c5)c(Cl)c4)c3c2)o1 [Lapatinib] (partner 2 µM) tested on Calu-6 gave relative viability: 0.96

Clc1ccc(Nc2nnc(Cc3ccncc3)c3ccccc23)cc1 [Vatalanib] + CS(=O)(=O)CCNCc1ccc(-c2ccc3ncnc(Nc4ccc(OCc5cccc(F)c5)c(Cl)c4)c3c2)o1 [Lapatinib] (partner 2 µM) tested on Calu-6 gave relative viability: 1.09

Clc1ccc(Nc2nnc(Cc3ccncc3)c3ccccc23)cc1 [Vatalanib] + Cc1nc(NC(=O)N2CCC[C@H]2C(N)=O)sc1-c1ccnc(C(C)(C)C(F)(F)F)c1 [Alpelisib] (partner 2 µM) tested on Calu-6 gave relative viability: 1.08
